src = patent US20240025997A1

The following binders are shown together with reported pKd values.
TEST SYSTEM: soluble rhesus ILT2-ECD (rhesus macaque)
Sequence (chain, as listed by the source limits assumed, form in doubt): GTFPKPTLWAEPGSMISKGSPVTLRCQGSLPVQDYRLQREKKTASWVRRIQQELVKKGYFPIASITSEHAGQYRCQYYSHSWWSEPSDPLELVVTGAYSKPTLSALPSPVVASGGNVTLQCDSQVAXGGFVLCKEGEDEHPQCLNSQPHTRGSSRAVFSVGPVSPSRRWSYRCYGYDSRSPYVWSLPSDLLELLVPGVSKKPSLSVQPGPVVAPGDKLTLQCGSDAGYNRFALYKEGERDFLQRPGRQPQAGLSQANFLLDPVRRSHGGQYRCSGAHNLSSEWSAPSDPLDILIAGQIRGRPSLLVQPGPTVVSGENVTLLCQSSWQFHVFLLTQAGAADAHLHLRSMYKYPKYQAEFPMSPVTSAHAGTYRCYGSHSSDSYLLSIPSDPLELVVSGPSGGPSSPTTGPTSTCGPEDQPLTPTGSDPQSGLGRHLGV
TEST DETAILS: SPR (Biacore), antibody captured on Protein A chip, soluble rhesus ILT2-ECD injected (1.6-200 nM), 25 C
# log scale: pKd equals minus log10 of the concentration in mol/L

Task: Entry anti-ILT2/ILT4 antibody 73D1 (antibody, V domains shown) VH: AVQLQQSGPELVKPGASVKISCKASGYTFTDYYINWVKQSHGKSLQWIGNVNPNDGGTTYNQKFKGKATLTVDKSSSTAYMELRSLTSEDSAVYYCARREIYFYGTIYYYAMDYWGQGTSVTVSS VL: DIVLTQSPASLAVSLGQRATISCRASESVDYYGNSFMYWYQQKPGRPPNLLIYFASNLESGVPARFSGSGSRTDFTLTIDPVEADDAATYYCQQNNEDPWTFGGGTKLEIK has what pKd?
Output: 8.92

Task: Now give it for anti-ILT4 antibody 47C8 (antibody, V domains shown) VH: EVQLQQSGPDLVKPGASVKISCKASGYSFTGYYMHWVKQSHGKSLEWIGRVYPNNGDTSYNQKFKVKAILTVDKSSSTAYMELRSLTSEDSAVYYCARGATVVESLFAYWGQGTLVTVSA VL: DIVLTQSPASLAVSLGQRATISCRASESVDNYGNNFLHWYQQKPGQPPKLLIYRTSNLESGIPARFSGSGSRTDFTLTINPVEADDVATYYCQQSNEDPYTFGGGTKLEIK too.
Output: 8.64

Task: Now give it for anti-ILT2/ILT4 antibody 51A1 (antibody, V domains shown) VH: EVQLVESGGGLVQPKGSLKLSCAASGFTFNTYAMHWVRQAPGKGLEWVARIRSKSSNYATYYADSVKDRFTISRDDSQSMLYLQMNNLKTEDTAMYYCVRDGIYYYGTMYYYAMDYWGQGTSVTVSS VL: NIVLTQSPASLAVSLGQRATISCRASESVDYYGNSFMYWYQQKPGQPPKLLIYFASNLESGVPARFSGSGSRTDFTLTIDPVEAADAASYYCQQNNEDPWTFGGGTKLEIK too.
Output: 9.70

# ---- query binder ----
Task: Entry anti-ILT4 antibody 48A5 (antibody, V domains shown) VH: QIQLVQSGPELKKPGETVKISCKASGYTFTNYGMNWVKQAPGKGLKWMGWINTYIGEPIYADDFKGRFAFSLETSASTAYLQINNLKNEDMATYFCARRSDYDGYAMDYWGQGTSVTVSS VL: DIVMSQSPSSLAVSVGERVTMSCKSSQSLLYSGNQKNYLAWYQQKPGQSPKLLIYWASTRESGVPDRFTGSGSGTDFTLTISSVKAEDLAVYYCQQHDSYPTFGGGSRLEIK has what pKd?
Output: 8.64
